system: HL-60; test: NCI tumour cell line growth inhibition, 48 h
The source made the active and inactive calls. No stated cut-off is given here; in the data, active = GI50 up to about 1.1 µM and inactive = higher.
Parameter call: string, one of active, inactive

Request: Hey, what did the test say about `CC1(C)CC[C@]2(C(=O)O)CC[C@]3(C)[C@H](C(=O)C=C4[C@@]5(C)C=C(C#N)C(=O)C(C)(C)[C@@H]5CC[C@]43C)[C@@H]2C1` ?
Response: active

Request: Hey, what did the test say about CC(Oc1ccccc1Cl)C(=O)NN1C(=O)CSC1c1ccccc1 (configuration not stated) ?
Response: inactive

Request: Hey, what did the test say about `N#CC1=C(N2CCCC2)NC(=O)CC1=O` ?
Response: inactive

Request: Hey, what did the test say about `COc1cc(OCc2ccccc2)c2c(CCC(=O)O)cc(=O)oc2c1.COc1cc(OCc2ccccc2)cc2oc(=O)cc(CCC(=O)O)c12` ?
Response: inactive

Request: Hey, what did the test say about `N#Cc1c(C#N)c(-c2ccco2)n(/N=C/c2ccco2)c1N` ?
Response: inactive

Request: Hey, what did the test say about `O=C1Cc2ccccc2N1c1c(Cl)cccc1Cl` ?
Response: inactive

Request: Hey, what did the test say about `O=S(=O)(Cc1ccccc1)SCc1ccccc1` ?
Response: inactive

Request: Hey, what did the test say about CC12C(=O)OC(=O)C1(C)C1C=CC2O1 (configuration not stated) ?
Response: inactive

Request: Hey, what did the test say about O=C1NC2NC3NC(=O)NC3NC2N1 (configuration not stated) ?
Response: inactive

Request: Hey, what did the test say about CCC1C2C=CC(CC2)N1S(=O)(=O)c1ccc(C)cc1 (configuration not stated) ?
Response: inactive

Request: Hey, what did the test say about `O=C(CSc1nnc(Cc2ccccc2)o1)Nc1ccc(Cl)cc1` ?
Response: inactive

Request: Hey, what did the test say about CCCCCCCCCCCCC(=O)NCC(=O)NC(Cc1ccccc1)C(=O)Oc1ccc([N+](=O)[O-])cc1 (configuration not stated) ?
Response: inactive

Request: Hey, what did the test say about `CC(C)(C)OC(=O)N1CCC(NC(=O)NC2CCN(C(=O)OC(C)(C)C)CC2)CC1` ?
Response: inactive

Request: Hey, what did the test say about `O=C(/C=C/c1ccc(O)c(O)c1O)OCCc1ccccc1` ?
Response: inactive

Request: Hey, what did the test say about `NCc1ccc(-c2ccc(-c3ccc(-c4ccc(CN)s4)s3)s2)s1` ?
Response: inactive

Request: Hey, what did the test say about CC1CCC[P+](Cc2ccccc2)(c2ccccc2)CC1 (configuration not stated) ?
Response: inactive

Request: Hey, what did the test say about Cc1ccc(S(=O)OCc2c(C)c(C)c(COS(=O)c3ccc(C)cc3)c(C)c2C)cc1 (configuration not stated) ?
Response: inactive

Request: Hey, what did the test say about `CCOc1cccc2[s+]snc12` ?
Response: inactive

Request: Hey, what did the test say about [C-]#[N+]C(C)(C)C[C@H]1CC(C)C2CCC(C)C3([N+]#[C-])CCC(=C)C1[C@H]23 (some centres not stated) ?
Response: active

Request: Hey, what did the test say about O=C1CC(C(COCc2ccccc2)OCc2ccccc2)CC(=O)N1 (configuration not stated) ?
Response: inactive

Request: Hey, what did the test say about `CCOC(=O)c1cc2cc(C)cc(C(=O)c3ccc([N+](=O)[O-])cc3)c2[nH]1` ?
Response: inactive

Request: Hey, what did the test say about CCCN(CCCCC(NC(C)=O)C(=O)NCc1ccccc1)C(=O)N(CCCl)N=O (configuration not stated) ?
Response: inactive

====

test system: HCC 2998; test: NCI tumour cell line growth inhibition, 48 h
Calls of active or inactive are those of the source. Rule as the data show it: active = GI50 up to about 1.1 µM and inactive = higher.
Assay metric: GI50

Recorded GI50 for `C#CCOCn1cnc2ncnc(Cl)c21` on HCC 2998 was > 100 µM (inactive)

Recorded GI50 for CCCCCCCCCCCCC(=O)NCC(=O)NC(Cc1ccccc1)C(=O)Oc1ccc([N+](=O)[O-])cc1 (stereo not given) on HCC 2998 was 44.4 µM (inactive)

Recorded GI50 for `O=C1Cc2ccccc2N1c1c(Cl)cccc1Cl` on HCC 2998 was 76.7 µM (inactive)

Recorded GI50 for `CCc1cc(Cc2cc(CC)c(NC(=O)C(=O)CC(=O)c3sc(-c4cccnc4)nc3C)c(CC)c2)cc(CC)c1NC(=O)C(=O)CC(=O)c1sc(-c2cccnc2)nc1C` on HCC 2998 was > 100 µM (inactive)

Recorded GI50 for C#CC1/C(=C\C(=O)OC)CCCC1O (stereo not given) on HCC 2998 was > 100 µM (inactive)

Recorded GI50 for COc1ccc(C#CCC(OC2OC(CO)C(O)C(O)C2O)C(O)c2ccc(OC)c(OC)c2)cc1OC (stereo not given) on HCC 2998 was > 100 µM (inactive)

Recorded GI50 for CC1=C(C)CC2C(=O)N(c3cc(C(C)(C)C)ccc3C(C)(C)C)C(=O)C2C1 (stereo not given) on HCC 2998 was 52.6 µM (inactive)

Recorded GI50 for CC(=O)OCc1nnn2c1C(OC(C)=O)CC2 (stereo not given) on HCC 2998 was > 100 µM (inactive)

Recorded GI50 for CCOC(=O)N(C)CCC1CC=CC(=O)C1c1cccc(OC)c1OC (stereo not given) on HCC 2998 was 13.1 µM (inactive)

Recorded GI50 for `Cc1ccc(/C=C/C(=O)C(C)(C)CN2CCCCC2)cc1` on HCC 2998 was 15 µM (inactive)

====

system: SN12C; assay: NCI tumour cell line growth inhibition, 48 h
The source made the active and inactive calls. Cut-off read from the data, not from the text of the source: active = GI50 up to about 1.1 µM and inactive = higher.
Provide the reported GI50 of each item.

get_value(item= `CC(C)(C)CNCCCNc1ccc(Cl)cc1` , readout=GI50) returns 28.7 µM (inactive)

get_value(item= CC1CNC(c2cccc(OCc3ccc(COc4cccc(C5=NC(C)CN5)c4)cc3)c2)=N1 (stereo not given) , readout=GI50) returns 19.5 µM (inactive)

get_value(item= `CC(C)/C(Cl)=N\OC(=O)Nc1ccc(C#N)cc1` , readout=GI50) returns 13.7 µM (inactive)

get_value(item= Cc1ccc(S(=O)(=O)CC2CCCn3c2c(C#N)c2ccccc23)cc1 (stereo not given) , readout=GI50) returns > 100 µM (inactive)

get_value(item= CCOC(=O)N(C)CCC1CC=CC(=O)C1c1cccc(OC)c1OC (stereo not given) , readout=GI50) returns 17.3 µM (inactive)

get_value(item= `C(=C\C(SCc1ccccc1)SCc1ccccc1)/c1ccccc1` , readout=GI50) returns > 10 µM (inactive)

get_value(item= `COC(=O)CCC(=O)CC(=O)C1=NS(=O)(=O)c2nc(S(N)(=O)=O)c(Cl)cc2N1` , readout=GI50) returns > 100 µM (inactive)

get_value(item= `O=S(=O)(O)c1ccc2c(/N=N/c3ccccc3Cl)c(O)ccc2c1` , readout=GI50) returns > 100 µM (inactive)

get_value(item= `O=C1c2ccccc2-c2cccc3ccc(Cc4ccc5ccccc5c4)c1c23` , readout=GI50) returns > 100 µM (inactive)

get_value(item= CN1CCC(O)C(CNC23CC4CC(CC(C4)C2)C3)C1 (stereo not given) , readout=GI50) returns > 100 µM (inactive)

get_value(item= CC(=O)C1=C(C)N(c2ccc(C)cc2)C2(O)C3=C(C(=O)c4ccccc4C3=O)C(O)=CC12Cl (stereo not given) , readout=GI50) returns 17 µM (inactive)

get_value(item= `Oc1ccc(-c2nc3cc(F)ccc3s2)cc1` , readout=GI50) returns 22.2 µM (inactive)

get_value(item= COc1ccc(C2C(Cl)C(=O)N2n2cnc3ccccc3c2=O)cc1OC (stereo not given) , readout=GI50) returns > 100 µM (inactive)

get_value(item= CCC(=O)C12OC3OC(C)(C)OC3C1OC(C)(C)O2 (stereo not given) , readout=GI50) returns > 100 µM (inactive)

get_value(item= `C/C(=N\NC(=S)Nc1ccc(C(=O)O)cc1)c1ccccn1` , readout=GI50) returns 19.7 µM (inactive)

get_value(item= `O=C(CN1CCOCC1)NC1=Nc2ncccc2C(=O)NN1` , readout=GI50) returns > 10 µM (inactive)

get_value(item= COC(=O)C1=CC2OC1(C)CCC2=O (stereo not given) , readout=GI50) returns > 100 µM (inactive)

get_value(item= `CCOC(=O)Nn1c(CC#N)nnc1Cc1ccccc1` , readout=GI50) returns > 100 µM (inactive)

get_value(item= N#CC(c1ccc(O)cc1)N1CCN(C(C#N)c2ccc(O)cc2)CC1 (stereo not given) , readout=GI50) returns > 87.1 µM (inactive)

get_value(item= `O=C1NCCCC12CCCNC2=O` , readout=GI50) returns > 100 µM (inactive)

====

tested on: HOP-92; experiment: NCI tumour cell line growth inhibition, 48 h
Active and inactive are the calls of the source. Rule as the data show it: active = GI50 up to about 1.1 µM and inactive = higher.
Parameter call: string, one of yes (1) (active), no (0) (inactive)

Request: Hey, what did the test say about O=c1n(Cc2ccccc2)c2ccccc2n1CC1CS1 (stereo unspecified) ?
Response: no (0)

Request: Hey, what did the test say about Cc1cn(C2CC(N(O)C(N)=O)C(CO)O2)c(=O)[nH]c1=O (stereo unspecified) ?
Response: no (0)

Request: Hey, what did the test say about `N#CC1=C(N2CCCC2)NC(=O)CC1=O` ?
Response: no (0)

Request: Hey, what did the test say about CC12CN(CC[N+](C)(C)C)CC1(C)C1CCC2O1 (stereo unspecified) ?
Response: no (0)

Request: Hey, what did the test say about `CCc1cc(Cc2cc(CC)c(NC(=O)C(=O)CC(=O)c3sc(-c4cccnc4)nc3C)c(CC)c2)cc(CC)c1NC(=O)C(=O)CC(=O)c1sc(-c2cccnc2)nc1C` ?
Response: no (0)

Request: Hey, what did the test say about `Nc1nc(Cl)c(N)c(NCC2(CO)CCCC2)n1` ?
Response: no (0)

Request: Hey, what did the test say about `CCOC(=O)Nn1c(CC#N)nnc1Cc1ccccc1` ?
Response: no (0)

Request: Hey, what did the test say about C#CC1/C(=C\C(=O)OC)CCCC1O (stereo unspecified) ?
Response: no (0)

Request: Hey, what did the test say about `N/C(=N\O)N/N=C/c1ccc2c(c1)OCCO2` ?
Response: no (0)

Request: Hey, what did the test say about `Nc1ncn(C/C=C/c2ccccc2)c2ncnc1-2` ?
Response: no (0)

Request: Hey, what did the test say about `Oc1cc(-c2cccc(F)c2)nc2cc3c(cc12)OCO3` ?
Response: yes (1)
